- System: DU-145 prostate
- ASSAY_REMARKS: NCI-60 one-dose screen, 48 h
- CONDITION_SET: 10 µM unless noted
About 83,000 compounds went through this panel and 20% of them were active in at least one assay; those are over-represented in the sample as a whole. The source made the active and inactive calls. The calls were made as follows: active = growth percent below 10; inactive = the rest.
Your answer must be one of the following: True = active, False = inactive

Here are 2 compounds together with their reported answers.
CCc1c2c(nc3ccc(OC(=O)NCc4ccc(B5OC(C)(C)C(C)(C)O5)cc4)cc13)-c1cc3c(c(=O)n1C2)COC(=O)[C@]3(O)CC; True
Nc1n[nH]c2cc(F)c([C@@H]3Nc4c(F)cc5[nH]ncc5c4[C@H]4C5CCC(C5)[C@@H]34)cc12 (some centres undefined); True

Query: Recorded test outcome, item COc1cccc(-c2nn(-c3ccccc3)cc2-c2ccnc(NCCNC(=O)c3ccccc3)c2)c1
Reply: False

Query: Recorded test outcome, item O=C(Nc1ccccc1Cl)Oc1ccc(-c2ccccc2)cc1
Reply: False

Query: Recorded test outcome, item O=C(c1ccc(Nc2nccc(NCCCCNc3ccnc4cc(Cl)ccc34)n2)cc1)N1CCCCC1
Reply: False

Query: Recorded test outcome, item O=C(CCc1nnc(CN(c2ccccc2)c2ccccc2)o1)c1nc2ccccc2[nH]1
Reply: False

Query: Recorded test outcome, item O=C1Nc2ccc(F)cc2C12Nc1cc(Cl)ccc1S2 (centres undefined)
Reply: False

Query: Recorded test outcome, item COc1cc(/C=C/C(=O)c2c(C)nc3ccccc3c2/C=C/c2ccc(C)cc2)cc(OC)c1OC
Reply: False

Query: Recorded test outcome, item C(=N\Nc1ncc(-c2cc3cc4c(cc3o2)OCO4)s1)/c1ccco1
Reply: False

* * *

In this section we review reported growth values for a set of molecules.
- Test system: HS 578T breast
- ASSAY_REMARKS: NCI-60 one-dose screen, 48 h (100 = growth as untreated, 0 = no growth, -100 = all killed)
- CONDITION_SET: 10 µM unless noted
The panel holds about 83,000 compounds, 20% with a hit somewhere; the sample as a whole holds those more often. The source made the active and inactive calls. The calls were made as follows: active = growth percent below 10; inactive = the rest.

// below: answered molecules
CC(C)(C)OC(=O)Nc1ccc2c(c1)C(NC(=O)Nc1cccc(C#N)c1)CC(C)(C)O2 (stereo not drawn); 85.5% (inactive)
COc1ccc2[nH]c(O)c(/C=c3/cc4c(c(-c5ccc(F)c(OC)c5)n3)=Nc3ccccc3-4)c2c1; 84.7% (inactive)

Please find the next molecule below.
Query: Record lookup: for HS 578T breast, what growth belongs to Cc1c(C(=O)N[C@@H](Cc2ccccc2)C(=O)C(=O)NCCc2ccccc2)[nH]c2ccccc2c1=O ?
Reply: 105% (inactive)

* * *

- System: HCT-116 colon
- ASSAY_REMARKS: NCI-60 one-dose screen, 48 h (100 = growth as untreated, 0 = no growth, -100 = all killed)
- CONDITION_SET: 10 µM unless noted
About 83,000 compounds went through this panel and 20% of them were active in at least one assay; those are over-represented in the sample as a whole.
MEASURED_ENDPOINT: growth (%)
Give the value, in units of %, as a plain number.

// below: answered compounds
Cc1ccc2nc(NC(=O)CSc3nc(-c4ccccc4)c(C#N)c(=O)n3Cc3ccccc3)sc2c1; 95.9
COc1cc(C2CC(c3cc(OC)c(OCCCOc4ccc(-n5c(/C=C/c6ccccc6)nc6ccccc6c5=O)cc4)c(OC)c3)=NO2)cc(OC)c1OC (stereo not given); 106
CCCCCCCCCCN(CCCCCCCCCC)CC(=O)c1ccc2cc(Br)c3ccccc3c2c1; -22.8

Query: Record lookup: for HCT-116 colon, what growth belongs to CCCCC1CCCCN1C(=O)OCC (stereo not given) ?
Reply: 94

Query: Record lookup: for HCT-116 colon, what growth belongs to CN(C)c1ccc(/C=C/C(=O)c2cccc(Nc3nc(Nc4ccccc4)nc(Nc4ccccc4)n3)c2)cc1 ?
Reply: 83.2

Query: Record lookup: for HCT-116 colon, what growth belongs to N#Cc1c(-c2cccc(Cl)c2)cc(-c2cccc(Cl)c2)[nH]c1=O ?
Reply: 67.1

Query: Record lookup: for HCT-116 colon, what growth belongs to Cc1ccc(-n2nc3c(c(C#N)c2=O)CC(c2ccccc2Cl)C([N+](=O)[O-])=C3O)cc1 (stereo not given) ?
Reply: 63.8

Query: Record lookup: for HCT-116 colon, what growth belongs to CN(c1ccccc1)c1ccc2c(c1)OCCC21CC1Nc1cnccc1C(=O)O (stereo not given) ?
Reply: 33

* * *

- System: NCI-H522 lung
- ASSAY_REMARKS: NCI-60 one-dose screen, 48 h (100 = growth as untreated, 0 = no growth, -100 = all killed)
- CONDITION_SET: 10 µM unless noted
The panel holds about 83,000 compounds, 20% with a hit somewhere; the sample as a whole holds those more often. Active and inactive are the calls of the source. How the source made its calls: active means growth percent below 10; inactive means the rest.
In this section we review reported growth values for a set of compounds.

Query: Given the entry COC(=O)[C@]12CC[C@@H](C)[C@H](C)[C@@H]1C1=CC[C@@H]3[C@@]4(C)C(C=O)=C[C@@](C)(COS(C)(=O)=O)[C@@H]4C(=O)C[C@@]3(C)[C@]1(C)CC2 , report its measured growth.
Reply: 22.2% (inactive)

Query: Given the entry Cc1cc(NCCCCNc2ccnc3cc(Cl)ccc23)nc(Nc2ccc(C(=O)N3CCCCC3)cc2)n1 , report its measured growth.
Reply: -42.2% (active)

Query: Given the entry Cc1ccc(N2CCN(C(=S)c3cccs3)CC2)cc1 , report its measured growth.
Reply: 82.6% (inactive)

Query: Given the entry CC1CC(C(C)(C)C)C(=O)C(C(C)(C)C)C1 (centres undefined) , report its measured growth.
Reply: 90.8% (inactive)

* * *

- System: SK-MEL-2 melanoma
- ASSAY_REMARKS: NCI-60 one-dose screen, 48 h (100 = growth as untreated, 0 = no growth, -100 = all killed)
- CONDITION_SET: 10 µM unless noted
This is part of a sample that, as a whole, favours compounds with a hit. Of some 83,000 tested, about 20% had one in any assay.
Binary call on growth: criterion met from 80% upward, criterion not met beneath that.

Query: Form field: growth at least 80%? Entry: COc1ccc2c(c1)CCCN2c1c2ccccc2nc2ccccc12
Reply: criterion not met

Query: Form field: growth at least 80%? Entry: COc1ccc(-c2nc3ccc4[nH]ncc4c3c3c2CCCC3)cc1B(O)O
Reply: criterion not met

Query: Form field: growth at least 80%? Entry: O=C(O)C1CCC(=O)N1C(=O)OCc1ccccc1 (centres undefined)
Reply: criterion met

Query: Form field: growth at least 80%? Entry: Cc1c(C(=O)NC(Cc2ccccc2)C(O)C(=O)NCc2ccc(F)cc2)[nH]c2ccccc2c1=O (centres undefined)
Reply: criterion met

Query: Form field: growth at least 80%? Entry: CC1(c2ccccc2)NC(=O)N(NC(=O)CSc2nc(-c3cccs3)nc3ccccc23)C1=O (centres undefined)
Reply: criterion met

* * *

- Tested on: HCT-15 colon
- ASSAY_REMARKS: NCI-60 one-dose screen, 48 h (100 = growth as untreated, 0 = no growth, -100 = all killed)
- CONDITION_SET: 10 µM unless noted
The panel holds about 83,000 compounds, 20% with a hit somewhere; the sample as a whole holds those more often. Active and inactive are the calls of the source. How the source made its calls: active means growth percent below 10; inactive means the rest.
In this section we review reported growth values for a set of compounds.

// below: answered compounds
CCCCC1CCCCN1C(=O)OCC (centres undefined); 103% (inactive)
CC(=O)O[C@]1(C(C)=O)CCC2C3C[C@H](C)C4=CC(=O)CC[C@]4(C)C3CC[C@@]21C (some centres undefined); 92.3% (inactive)

Query: Given the entry COc1cccc(C(=O)NCCNc2cc(-c3cn(-c4ccccc4)nc3-c3cccc(OC)c3)ccn2)c1 , report its measured growth.
Reply: 41.8% (inactive)

Query: Given the entry Cc1cccc(NC(=O)N/C(N)=N/c2nc(C)c(C)s2)c1 , report its measured growth.
Reply: 22.2% (inactive)

Query: Given the entry Cc1ccccc1NC(=O)N/C(N)=N/c1nc(C)c(C)s1 , report its measured growth.
Reply: 26.4% (inactive)

* * *

- Tested on: SK-OV-3 ovarian
- ASSAY_REMARKS: NCI-60 one-dose screen, 48 h
- CONDITION_SET: 10 µM unless noted
- Experimental: Growth inhibition of the SK-OV-3 human tumor cell line is measured as a screen for anti-cancer activity. Cells are grown in 96 well plates and exposed to the test compound for 48 hours. Compounds are tested at a single concentration, which is 10^-5 M for most compounds. The reported endpoint is percent growth (GI% or GIPRCNT), where numbers from 0 - 100% represent growth inhibition, and numbers from -100% - 0 represent cell death. For example, a value of 40 represents 60% growth inhibition. […]
This is part of a sample that, as a whole, favours compounds with a hit. Of some 83,000 tested, about 20% had one in any assay. The source made the active and inactive calls. Rule for the calls: active = growth percent below 10; inactive = the rest.
Your answer must be one of the following: 1 = active, 0 = inactive

C=CCNc1nc(NN2C(=O)c3cccc4cccc(c34)C2=O)nc(-n2cnc3ccccc32)n1; 0
COc1ccc(-c2cc(-c3ccc(Nc4nc(Nc5ccc(Cl)cc5)nc(Nc5ccc(Cl)cc5)n4)cc3)nc(N)c2C#N)cc1; 0
CCCCCCCCCCN(CCCCCCCCCC)CC(=O)c1ccc2cc(Br)c3ccccc3c2c1; 0
Cc1nc2c(c(N3CCCc4ccccc43)n1)CCC2; 1
COc1cc(-c2nn(-c3ccccc3)cc2-c2ccnc(NCCNS(=O)(=O)c3ccc(Cl)cc3)n2)ccc1Cl; 0

Query: Recorded test outcome, item C[C@H]1[C@H]2[C@H]3CC[C@@H]4[C@@]5(C)C/C(=C/c6cccnc6)C(=O)C(C)(C)[C@@H]5CC[C@@]4(C)[C@]3(C)CC[C@]23CO[C@]1(C)[C@@H](C(=O)/C=C\c1cccnc1)C3
Reply: 0

Query: Recorded test outcome, item CCOC(CN=Cc1cc(C)c2[nH]c3ccccc3c2c1C)OCC
Reply: 0

Query: Recorded test outcome, item O=C(COc1ccc(/C=C2\Oc3ccccc3C2=O)cc1)Nc1nc2ccccc2s1
Reply: 0

Query: Recorded test outcome, item COc1cc2nc(Cl)nc(Nc3ccc(S(=O)(=O)Nc4nccs4)cc3)c2cc1OC
Reply: 0

Query: Recorded test outcome, item Oc1ccc(CN2CCC(N3CCOCC3)CC2)c2cccnc12
Reply: 0
